In this section we review reported GI50 values for a set of compounds.
- System: SK-MEL-2 melanoma
- measurement-description: NCI tumour cell line growth inhibition, 48 h

Cc1c(C(N)=O)sc2c1C(=O)N(Cc1ccccc1)C1=NN=C(c3ccc(Cl)cc3)CN12 :: 6.1 µM
C(#Cc1ccccc1C#Cc1cccs1)c1cccs1 :: 41.7 µM
C=C(C)C(=O)O[C@H]1CC(=C)[C@@H]2C[C@H](O)[C@](O)(CCl)[C@@H]2[C@H]2OC(=O)C(=C)[C@@H]21 :: 6.59 µM

Data request, read-out GI50, for COc1cc(CSc2nc3ccc(C)cc3c(=O)n2-c2ccccc2)cc(OC)c1OC
3.52 µM

Ok, now CN(CCCn1c2c(c3ccccc3c1=O)C(=O)c1ccccc1-2)CCCn1c2c(c3ccccc3c1=O)C(=O)c1ccccc1-2
27.6 µM

What about this compound? COc1ccc(-c2cn(-c3cc(OC)c(OC)c(OC)c3)c(SCc3ccccc3)n2)cc1OC
> 100 µM

Please give the result for CC(C)(C)OC(=O)N1CCN(CCn2cc(C(F)(F)F)c3c(Cl)ncnc32)CC1 too.
1.93 µM

Now try O=C1Nc2ccccc2/C1=C/C(=O)c1coc2c1C(=O)c1ccccc1C2=O .
> 100 µM

Again, but for CC(C)N(Cc1ccccc1)c1c(S)ssc1=S
3.53 µM
